Provide the recorded SPOT peptide array binding signal intensity for the entries that follow.
ASSAY SYSTEM: CaRvs167
PROTOCOL: SPOT peptide array binding signal intensity (averaged, normalized) (arbitrary units (background-subtracted, floor 0; scale differs between SH3 domains)); higher = stronger binding of the SH3 domain to the peptide
One number for each entry.

Record excerpt, results attached:
binder=RLSRLLLSLPPESFT result_value=64.2
binder=RRSKSLPTTPGIRSG result_value=15.2

# map each binder to its SPOT peptide array binding signal intensity
1. FYHRPAPKPPVTKKV
2. RSVKRPRRAPRPVVS

Result:
[3, 20.3]
